# Measurement Target: human ROR1 (hROR1) on cells (human, UniProt Q01973 30-937)
# Sequence (Q01973 30-937): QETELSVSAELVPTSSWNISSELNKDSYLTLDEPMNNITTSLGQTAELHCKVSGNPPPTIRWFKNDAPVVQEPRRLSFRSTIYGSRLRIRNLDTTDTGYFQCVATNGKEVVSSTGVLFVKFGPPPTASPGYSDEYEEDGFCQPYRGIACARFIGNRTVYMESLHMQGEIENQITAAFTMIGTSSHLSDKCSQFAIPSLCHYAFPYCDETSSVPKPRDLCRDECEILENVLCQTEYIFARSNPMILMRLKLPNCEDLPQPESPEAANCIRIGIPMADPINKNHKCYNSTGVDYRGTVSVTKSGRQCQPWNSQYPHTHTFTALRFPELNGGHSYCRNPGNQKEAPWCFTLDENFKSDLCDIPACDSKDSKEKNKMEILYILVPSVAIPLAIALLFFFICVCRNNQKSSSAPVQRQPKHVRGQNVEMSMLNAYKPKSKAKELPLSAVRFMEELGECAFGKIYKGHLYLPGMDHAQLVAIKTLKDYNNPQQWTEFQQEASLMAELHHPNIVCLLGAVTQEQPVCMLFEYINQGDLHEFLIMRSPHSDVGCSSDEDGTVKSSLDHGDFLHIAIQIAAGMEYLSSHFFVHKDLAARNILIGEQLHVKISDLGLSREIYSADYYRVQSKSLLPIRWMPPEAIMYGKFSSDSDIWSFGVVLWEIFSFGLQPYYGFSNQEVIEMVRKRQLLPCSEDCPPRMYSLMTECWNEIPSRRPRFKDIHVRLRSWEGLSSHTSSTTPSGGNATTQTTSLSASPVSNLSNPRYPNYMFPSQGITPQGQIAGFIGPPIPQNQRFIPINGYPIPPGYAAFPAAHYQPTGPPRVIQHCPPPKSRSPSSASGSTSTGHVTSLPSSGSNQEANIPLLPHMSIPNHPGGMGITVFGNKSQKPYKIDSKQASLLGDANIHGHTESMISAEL
# Assay Notes: cell-based or functional assay

Binder | Unit Spec | ADCC Cytotoxicity (%), Donor 2, 10 nM
PR001362 (antibody, V domains shown, fully human IgG1, kappa) VH: QVQLVESGGGLVQPGGSLRLSCAASGFTFSTYGMHWVRQAPGKGLEWVAVIWYDGSDEDYADSVKGRFTISRDNSKNTLYLQMNSLRAEDTAVYYCARDQARSFDLWGRGTLVTVSS VL: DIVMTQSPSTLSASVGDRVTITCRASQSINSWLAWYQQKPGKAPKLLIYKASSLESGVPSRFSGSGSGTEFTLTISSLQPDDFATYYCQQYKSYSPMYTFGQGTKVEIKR | % | 19.2
PR001354 (antibody, human IgG1, kappa, V domains shown, fully human IgG1, kappa; also called anti-ROR1 1015M2-C9 hIgG1; PR001354(WT)) VH: QVQLVQSGGGVVQPGRSLRLSCAASGFTFSSYGMHWVRQAPGKGLEWVAIMWYDGSDKDYADSVKGRFTISRDTSKNTLYLQMNSLRAEDTAVYYCAREQARSFDLWGRGTLVTVSS VL: DIVMTQSPSSLSASVGDRVTITCRASQTINNWLAWYQQKPGKAPKLLIYKASSLESGVPSRFSGSGSGTEFTLTISSLQPDDFATYYCQQYNSYSPMYTFGQGTKVEIKR | % | 15.9
PR001355 (antibody, human IgG1, kappa, V domains shown, fully human IgG1, kappa) VH: QVQLVQSGGGLVQPGGSLRLSCAASGFTFSSYGMHWVRQAPGKGLEWVAVIWYDGSNKDYADSVKGRFTISRDTSKNTLYLQMNSLRAEDTAVYYCVREQARSFDLWGRGTLVTVSS VL: DIQMTQSPSSLSASVGDRVTITCRASQTMNNWLAWYQQKPGKAPKLLIYKASSLESGVPSRFSGSGSGTEFTLTISSLQPDDSATYYCQQYNSYSPMYTFGQGTKLEIKR | % | 14.2
PR001359 (antibody, human IgG1, kappa, V domains shown, fully human IgG1, kappa) VH: QVQLVESGGGVVQPGRSLRLSCAASGFTFSTYGMHWVRQAPGKGLEWVAVTWYDGSDKDYADSVKGRFTISRDTSKNTLYLQMNSLRAEDTAVYYCAREQARSFDLWGRGTLVTVSS VL: DIVMTQSPSTLSASVGDRVTITCRASQSVNNWLAWYQQKPGKAPKLLIYKASSLESGVPSRFSGSGSGTEFTLTISSLQPDDFATYYCQQYKSYSPMYTFGQGTKVEIKR | % | 26.1
